Record form. Attribute: shrunken log2 fold change. Fill in for each entry.
- Tested on: Escherichia coli TOP10
- Experiment Description: shrunken log2 fold change of peptide-encoding DNA abundance (4.5 h post-induction vs induction); higher = less antimicrobial activity (less host growth inhibition)
- Condition Parameters: time post-induction: 4.5 h; library: site-saturation at positions 5, 18, 19, 20

>>> reported_measurement("RRIRTRPPRLPRPRPRPTGHPRP")
0.131

# batch size: 2; output shrunken log2 fold change per entry
1. RRIRKRPPRLPRPRPRPRICPRP
2. RRIRHRPPRLPRPRPRPNETPRP

1: 0.0539; 2: 0.00408

* * *

- System: Escherichia coli TOP10
- Experiment Description: shrunken log2 fold change of peptide-encoding DNA abundance (4.5 h post-induction vs induction); higher = less antimicrobial activity (less host growth inhibition)
- Condition Parameters: time post-induction: 4.5 h; library: site-saturation at positions 5, 18, 19, 20
The following ranges of shrunken log2 fold change define the classes used here: bucket 1 = under -0.2, bucket 2 = from -0.2 up to -0.02, bucket 3 = -0.02 and over

>>> classification("RRIRERPPRLPRPRPRPKYDPRP")
"bucket 2"
>>> classification("RRIRTRPPRLPRPRPRPPYHPRP")
"bucket 1"
>>> classification("RRIRDRPPRLPRPRPRPHRMPRP")
"bucket 3"
>>> classification("RRIRRRPPRLPRPRPRPPIIPRP")
"bucket 3"
>>> classification("RRIRLRPPRLPRPRPRPLNMPRP")
"bucket 1"
>>> classification("RRIRVRPPRLPRPRPRPEPMPRP")
"bucket 3"

Entry `RRIRMRPPRLPRPRPRPEFEPRP` belongs to which category?
bucket 3

Can you check `RRIRLRPPRLPRPRPRPWLTPRP` next?
bucket 2

Can you check `RRIRLRPPRLPRPRPRPRNAPRP` next?
bucket 2

* * *

- System: Escherichia coli TOP10
- Experiment Description: shrunken log2 fold change of peptide-encoding DNA abundance (4.5 h post-induction vs induction); higher = less antimicrobial activity (less host growth inhibition)
- Condition Parameters: time post-induction: 4.5 h; library: site-saturation at positions 5, 18, 19, 20
Record form. Attribute: shrunken log2 fold change. Fill in for each entry.

// below: answered sequences
>>> reported_measurement("RRIRPRPPRLPRPRPRPPEYPRP")
-0.558
>>> reported_measurement("RRIRGRPPRLPRPRPRPDAQPRP")
2.38
>>> reported_measurement("RRIRLRPPRLPRPRPRPKENPRP")
0.00493
>>> reported_measurement("RRIRTRPPRLPRPRPRPNANPRP")
-0.0879
>>> reported_measurement("RRIRYRPPRLPRPRPRPDFQPRP")
-0.409
>>> reported_measurement("RRIRRRPPRLPRPRPRPDYVPRP")
0.0255
>>> reported_measurement("RRIRFRPPRLPRPRPRPHGMPRP")
-0.00197
>>> reported_measurement("RRIRARPPRLPRPRPRPWVHPRP")
-0.162
>>> reported_measurement("RRIRNRPPRLPRPRPRPFYQPRP")
-0.8
>>> reported_measurement("RRIRHRPPRLPRPRPRPPCYPRP")
-0.131

# batch size: 7; output shrunken log2 fold change per entry
1. RRIRFRPPRLPRPRPRPLINPRP
2. RRIRCRPPRLPRPRPRPLVLPRP
3. RRIRCRPPRLPRPRPRPMEYPRP
4. RRIRSRPPRLPRPRPRPDITPRP
5. RRIRRRPPRLPRPRPRPCYAPRP
6. RRIRHRPPRLPRPRPRPRSDPRP
7. RRIRSRPPRLPRPRPRPFPYPRP

[-0.421, -0.378, -0.17, 0.0856, 1.3, -0.123, -0.115]

* * *

- Tested on: Escherichia coli TOP10
- Experiment Description: shrunken log2 fold change of peptide-encoding DNA abundance (4.5 h post-induction vs induction); higher = less antimicrobial activity (less host growth inhibition)
- Condition Parameters: time post-induction: 4.5 h; library: site-saturation at positions 5, 18, 19, 20
Endpoint Name: shrunken log2 fold change
One number for each entry.

# batch size: 7; output shrunken log2 fold change per entry
1. RRIRWRPPRLPRPRPRPILHPRP
2. RRIRIRPPRLPRPRPRPAPFPRP
3. RRIRWRPPRLPRPRPRPATWPRP
4. RRIRKRPPRLPRPRPRPLGMPRP
5. RRIRARPPRLPRPRPRPSMHPRP
6. RRIRGRPPRLPRPRPRPAMVPRP
7. RRIRPRPPRLPRPRPRPPLWPRP

[0.0591, 0.271, 0.152, 0.11, 0.163, 0.252, 1.75]

# batch size: 6; output shrunken log2 fold change per entry
1. RRIRDRPPRLPRPRPRPSHMPRP
2. RRIRHRPPRLPRPRPRPIPYPRP
3. RRIRVRPPRLPRPRPRPLPLPRP
4. RRIRRRPPRLPRPRPRPRIPPRP
5. RRIRVRPPRLPRPRPRPFAPPRP
6. RRIRRRPPRLPRPRPRPDFMPRP

1. -0.0936
2. -0.3
3. 0.0752
4. 0.209
5. 0.0601
6. 0.335

* * *

- System: Escherichia coli TOP10
- Experiment Description: shrunken log2 fold change of peptide-encoding DNA abundance (4.5 h post-induction vs induction); higher = less antimicrobial activity (less host growth inhibition)
- Condition Parameters: time post-induction: 4.5 h; library: site-saturation at positions 5, 18, 19, 20
Record form. Attribute: shrunken log2 fold change. Fill in for each entry.
Answers are plain numbers.

// below: answered sequences
>>> reported_measurement("RRIRDRPPRLPRPRPRPVACPRP")
0.35
>>> reported_measurement("RRIRFRPPRLPRPRPRPGQHPRP")
0.176
>>> reported_measurement("RRIRQRPPRLPRPRPRPCQKPRP")
0.0369
>>> reported_measurement("RRIRRRPPRLPRPRPRPGAMPRP")
0.337

# batch size: 2; output shrunken log2 fold change per entry
1. RRIRFRPPRLPRPRPRPNPIPRP
2. RRIRFRPPRLPRPRPRPPTHPRP

1: -0.423; 2: 0.22

# batch size: 8; output shrunken log2 fold change per entry
1. RRIRKRPPRLPRPRPRPTTCPRP
2. RRIRPRPPRLPRPRPRPCMVPRP
3. RRIRRRPPRLPRPRPRPFKSPRP
4. RRIRWRPPRLPRPRPRPCSAPRP
5. RRIRDRPPRLPRPRPRPVWRPRP
6. RRIRRRPPRLPRPRPRPINHPRP
7. RRIRRRPPRLPRPRPRPPNWPRP
8. RRIRMRPPRLPRPRPRPSIPPRP

1: 0.273; 2: -0.423; 3: -0.336; 4: 0.0988; 5: 0.0883; 6: -0.273; 7: 0.581; 8: -0.316

# batch size: 5; output shrunken log2 fold change per entry
1. RRIRMRPPRLPRPRPRPYKMPRP
2. RRIRFRPPRLPRPRPRPVKRPRP
3. RRIRERPPRLPRPRPRPDSHPRP
4. RRIRQRPPRLPRPRPRPRAYPRP
5. RRIRARPPRLPRPRPRPMFWPRP

1: -0.277; 2: 0.0219; 3: -0.6; 4: -0.0505; 5: 0.19

# batch size: 4; output shrunken log2 fold change per entry
1. RRIRKRPPRLPRPRPRPMPFPRP
2. RRIRHRPPRLPRPRPRPETVPRP
3. RRIRARPPRLPRPRPRPLTNPRP
4. RRIRWRPPRLPRPRPRPRYPPRP

1. 0.0304
2. 0.12
3. 0.303
4. 0.175

* * *

- Test system: Escherichia coli TOP10
- Experiment Description: shrunken log2 fold change of peptide-encoding DNA abundance (4.5 h post-induction vs induction); higher = less antimicrobial activity (less host growth inhibition)
- Condition Parameters: time post-induction: 4.5 h; library: site-saturation at positions 5, 18, 19, 20
Endpoint Name: shrunken log2 fold change
One number for each entry.

// below: answered sequences
>>> reported_measurement("RRIRHRPPRLPRPRPRPGYGPRP")
-0.318
>>> reported_measurement("RRIRMRPPRLPRPRPRPEQSPRP")
3.19

The record that follows has no shrunken log2 fold change shown yet.
Param readout = shrunken log2 fold change; param system = Escherichia coli TOP10; param query = `RRIRMRPPRLPRPRPRPLKFPRP` ; response: value
0.426

* * *

- Test system: Escherichia coli TOP10;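 further: peptides expressed intracellularly from a pBAD plasmid library in pooled LB shake-flask culture, induced with 0.3% L-arabinose, DNA abundance read by NGS, three biological replicates, DESeq2 with apeglm shrinkage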
- Experiment Description: shrunken log2 fold change of peptide-encoding DNA abundance (4.5 h post-induction vs induction); higher = less antimicrobial activity (less host growth inhibition)
- Condition Parameters: time post-induction: 4.5 h; library: site-saturation at positions 5, 18, 19, 20
shrunken log2 fold change of -0.02 or higher: Satisfied. Under -0.02: Not satisfied.

Before answering, review these 4 worked examples.
>>> classification("RRIRGRPPRLPRPRPRPQSGPRP")
"Satisfied"
>>> classification("RRIRKRPPRLPRPRPRPSMWPRP")
"Satisfied"
>>> classification("RRIRIRPPRLPRPRPRPEGWPRP")
"Satisfied"
>>> classification("RRIRKRPPRLPRPRPRPNEIPRP")
"Satisfied"

Is the recorded value of shrunken log2 fold change equal to or greater than -0.02 for this sequence? `RRIRYRPPRLPRPRPRPYLWPRP`
Not satisfied

Can you check `RRIRRRPPRLPRPRPRPQDTPRP` next?
Not satisfied

Can you check `RRIRARPPRLPRPRPRPFSAPRP` next?
Not satisfied

Can you check `RRIRMRPPRLPRPRPRPCPYPRP` next?
Not satisfied

Can you check `RRIRKRPPRLPRPRPRPPLMPRP` next?
Satisfied

Can you check `RRIRYRPPRLPRPRPRPLFEPRP` next?
Not satisfied

Can you check `RRIRIRPPRLPRPRPRPMAGPRP` next?
Satisfied
